For each entry below, report its kcat/KM value.
study-system: Factor X, P00742
Sequence (P00742 whole entry, looked up): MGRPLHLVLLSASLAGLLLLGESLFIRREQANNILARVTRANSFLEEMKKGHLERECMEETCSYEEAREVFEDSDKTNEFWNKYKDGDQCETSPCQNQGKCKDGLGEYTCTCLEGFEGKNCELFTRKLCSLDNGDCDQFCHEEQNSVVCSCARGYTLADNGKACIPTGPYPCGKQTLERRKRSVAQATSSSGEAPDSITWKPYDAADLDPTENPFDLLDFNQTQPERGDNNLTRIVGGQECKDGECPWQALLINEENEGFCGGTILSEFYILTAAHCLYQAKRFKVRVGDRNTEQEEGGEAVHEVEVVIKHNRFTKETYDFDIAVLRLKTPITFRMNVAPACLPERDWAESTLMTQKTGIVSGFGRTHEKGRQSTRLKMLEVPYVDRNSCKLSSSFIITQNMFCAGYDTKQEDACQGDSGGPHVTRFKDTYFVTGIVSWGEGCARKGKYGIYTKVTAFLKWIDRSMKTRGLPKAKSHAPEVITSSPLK
Field: numeric (M⁻¹ s⁻¹). Do not append units.

Please report the recorded kcat/KM for FIXa-A103N/N105S/R318Y/R338E/R403E/E410N (mature FIX numbering) (protein) chain 1: YNSGKLEEFVQGNLERECMEEKCSFEEAREVFENTERTTEFWKQYVDGDQCESNPCLNGGSCKDDINSYECWCPFGFEGKNCELDVTCNIKNGRCEQFCKNSNDSKVVCSCTEGYRLAENQKSCEPAVPFPCGRVSVSQTSKLTR chain 2: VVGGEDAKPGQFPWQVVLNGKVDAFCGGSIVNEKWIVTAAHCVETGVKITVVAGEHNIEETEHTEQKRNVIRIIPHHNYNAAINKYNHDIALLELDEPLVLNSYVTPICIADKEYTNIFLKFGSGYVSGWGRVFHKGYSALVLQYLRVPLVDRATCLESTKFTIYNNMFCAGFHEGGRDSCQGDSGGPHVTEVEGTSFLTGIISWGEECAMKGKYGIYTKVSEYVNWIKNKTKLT .
1.5e+08

Consider the protein shown here: FIXa-D104N/K106S/Y155F/R318Y/R338E/R403E/E410N (mature FIX numbering) (protein) chain 1: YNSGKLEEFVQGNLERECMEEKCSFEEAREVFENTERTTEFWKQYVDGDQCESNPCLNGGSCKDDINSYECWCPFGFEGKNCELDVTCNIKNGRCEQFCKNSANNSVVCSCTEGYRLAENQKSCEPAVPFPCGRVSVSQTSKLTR chain 2: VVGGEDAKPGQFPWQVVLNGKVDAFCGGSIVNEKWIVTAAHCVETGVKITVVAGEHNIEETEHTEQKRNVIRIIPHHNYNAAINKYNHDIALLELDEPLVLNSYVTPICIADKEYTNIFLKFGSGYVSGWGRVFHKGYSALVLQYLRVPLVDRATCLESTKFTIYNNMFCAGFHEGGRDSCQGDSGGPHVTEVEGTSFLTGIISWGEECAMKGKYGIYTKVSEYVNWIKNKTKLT What is its recorded kcat/KM?
1.8e+08

Given the protein FIXa-Y155F/R318Y/R338E/E410N (mature FIX numbering) (protein) chain 1: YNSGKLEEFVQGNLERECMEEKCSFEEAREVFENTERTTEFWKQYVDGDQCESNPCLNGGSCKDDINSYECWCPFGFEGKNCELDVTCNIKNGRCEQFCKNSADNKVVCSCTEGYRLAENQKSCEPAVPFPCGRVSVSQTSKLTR chain 2: VVGGEDAKPGQFPWQVVLNGKVDAFCGGSIVNEKWIVTAAHCVETGVKITVVAGEHNIEETEHTEQKRNVIRIIPHHNYNAAINKYNHDIALLELDEPLVLNSYVTPICIADKEYTNIFLKFGSGYVSGWGRVFHKGYSALVLQYLRVPLVDRATCLESTKFTIYNNMFCAGFHEGGRDSCQGDSGGPHVTEVEGTSFLTGIISWGEECAMKGKYGIYTKVSRYVNWIKNKTKLT , what is its reported kcat/KM?
3.7e+08

Can you look up the measured kcat/KM of FIXa-Y155F/N260S/R318Y/R338E/R403E/E410N (protein) chain 1: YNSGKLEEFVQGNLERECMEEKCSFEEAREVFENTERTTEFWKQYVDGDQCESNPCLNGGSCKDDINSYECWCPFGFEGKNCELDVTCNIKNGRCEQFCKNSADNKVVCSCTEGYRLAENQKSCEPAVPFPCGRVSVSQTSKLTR chain 2: VVGGEDAKPGQFPWQVVLNGKVDAFCGGSIVNEKWIVTAAHCVETGVKITVVAGEHNIEETEHTEQKRNVIRIIPHHNYSAAINKYNHDIALLELDEPLVLNSYVTPICIADKEYTNIFLKFGSGYVSGWGRVFHKGYSALVLQYLRVPLVDRATCLESTKFTIYNNMFCAGFHEGGRDSCQGDSGGPHVTEVEGTSFLTGIISWGEECAMKGKYGIYTKVSEYVNWIKNKTKLT for me?
7e+07

Any idea what kcat/KM was measured for FIXa-R338E/T343R/R403E/E410N (protein) chain 1: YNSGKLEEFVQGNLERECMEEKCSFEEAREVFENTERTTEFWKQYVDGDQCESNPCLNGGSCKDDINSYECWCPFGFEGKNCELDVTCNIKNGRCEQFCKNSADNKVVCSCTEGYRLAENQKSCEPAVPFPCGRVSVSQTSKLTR chain 2: VVGGEDAKPGQFPWQVVLNGKVDAFCGGSIVNEKWIVTAAHCVETGVKITVVAGEHNIEETEHTEQKRNVIRIIPHHNYNAAINKYNHDIALLELDEPLVLNSYVTPICIADKEYTNIFLKFGSGYVSGWGRVFHKGRSALVLQYLRVPLVDRATCLESTKFRIYNNMFCAGFHEGGRDSCQGDSGGPHVTEVEGTSFLTGIISWGEECAMKGKYGIYTKVSEYVNWIKNKTKLT ?
3e+08

Quick check: kcat/KM of FIXa-R318Y/R338E/R403E/E410N/T412V (protein) chain 1: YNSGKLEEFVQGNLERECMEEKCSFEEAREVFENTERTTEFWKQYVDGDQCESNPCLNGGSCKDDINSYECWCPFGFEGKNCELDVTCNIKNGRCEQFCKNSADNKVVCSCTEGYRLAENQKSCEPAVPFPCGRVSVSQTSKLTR chain 2: VVGGEDAKPGQFPWQVVLNGKVDAFCGGSIVNEKWIVTAAHCVETGVKITVVAGEHNIEETEHTEQKRNVIRIIPHHNYNAAINKYNHDIALLELDEPLVLNSYVTPICIADKEYTNIFLKFGSGYVSGWGRVFHKGYSALVLQYLRVPLVDRATCLESTKFTIYNNMFCAGFHEGGRDSCQGDSGGPHVTEVEGTSFLTGIISWGEECAMKGKYGIYTKVSEYVNWIKNKVKLT ?
1.9e+08

Endpoint output: kcat/KM of FIXa Y155F/K247N/N249S/N260S/R318Y/R338E/R403E/E410N (protein) chain 1: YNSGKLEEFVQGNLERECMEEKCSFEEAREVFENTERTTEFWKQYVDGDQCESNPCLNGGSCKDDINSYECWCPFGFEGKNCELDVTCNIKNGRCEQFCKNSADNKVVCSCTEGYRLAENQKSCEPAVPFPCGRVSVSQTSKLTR chain 2: VVGGEDAKPGQFPWQVVLNGKVDAFCGGSIVNEKWIVTAAHCVETGVKITVVAGEHNIEETEHTEQNRSVIRIIPHHNYSAAINKYNHDIALLELDEPLVLNSYVTPICIADKEYTNIFLKFGSGYVSGWGRVFHKGYSALVLQYLRVPLVDRATCLESTKFTIYNNMFCAGFHEGGRDSCQGDSGGPHVTEVEGTSFLTGIISWGEECAMKGKYGIYTKVSEYVNWIKNKTKLT . Value?
5.7e+07
